Data origin, for the record: patent US8178506B2

- System: mir-30a pri-miRNA
- Measurement Notes: mir-30a luciferase reporter (pGL3C-M30-4X) assay in 293T cells
- Type: cell-based, human
- Experimental Setup: 150 nM oligomeric compound, then mir-30a pri-miRNA mimic 200 nM, pGL3C-M30-4X normalized to pRL-CMV
In the oligonucleotide strings, read from the 5' end, every base follows the letter of its sugar. An asterisk marks phosphorothioate; unmarked linkages are phosphodiester. Other units and linkages are bracketed, terminal groups are in braces. A string of capitals states the bases alone. e = 2'-O-(2-methoxyethyl) (MOE); [5mC] = 5-methylcytosine; d = 2'-deoxy (DNA)
Quick rule for you: percent control luciferase expression under 70 percent control gets 1, anything else gets 0.

substance="328078 (antisense e[5mC]*e[5mC]*e[5mC]*eA*eT*d[5mC]*dT*dG*dT*dG*dG*d[5mC]*dT*dT*d[5mC]*eA*e[5mC]*eA*eG*e[5mC]) [compound 328078]" group_label=1
substance="328086 (antisense e[5mC]*eA*eT*e[5mC]*eT*dG*dT*dG*dG*d[5mC]*dT*dT*d[5mC]*dA*d[5mC]*eA*eG*e[5mC]*eT*eT) [compound 328086]" group_label=0
substance="328087 (antisense AAGCCCATCTGTGGCTTCAC; all 2'-MOE, all phosphorothioate, methylation of C not given here; pseudo half-knot design targeting pri-miRNA hairpin) [compound 328087]" group_label=0

Query :: Does the reported percent control luciferase expression of the following substance sit strictly below 70 percent control? 327874 (antisense eG*e[5mC]*eT*eG*e[5mC]*eA*eA*eA*e[5mC]*eA*eT*e[5mC]*e[5mC]*eG*eA*e[5mC]*eT*eG*eA*eA*eA*eG) [compound 327874]
Result :: 1
